TARGET OR SYSTEM: JAK2 (Homo sapiens)
Construct: host or cells: baculovirus expression system
Sequence (O60674 whole entry): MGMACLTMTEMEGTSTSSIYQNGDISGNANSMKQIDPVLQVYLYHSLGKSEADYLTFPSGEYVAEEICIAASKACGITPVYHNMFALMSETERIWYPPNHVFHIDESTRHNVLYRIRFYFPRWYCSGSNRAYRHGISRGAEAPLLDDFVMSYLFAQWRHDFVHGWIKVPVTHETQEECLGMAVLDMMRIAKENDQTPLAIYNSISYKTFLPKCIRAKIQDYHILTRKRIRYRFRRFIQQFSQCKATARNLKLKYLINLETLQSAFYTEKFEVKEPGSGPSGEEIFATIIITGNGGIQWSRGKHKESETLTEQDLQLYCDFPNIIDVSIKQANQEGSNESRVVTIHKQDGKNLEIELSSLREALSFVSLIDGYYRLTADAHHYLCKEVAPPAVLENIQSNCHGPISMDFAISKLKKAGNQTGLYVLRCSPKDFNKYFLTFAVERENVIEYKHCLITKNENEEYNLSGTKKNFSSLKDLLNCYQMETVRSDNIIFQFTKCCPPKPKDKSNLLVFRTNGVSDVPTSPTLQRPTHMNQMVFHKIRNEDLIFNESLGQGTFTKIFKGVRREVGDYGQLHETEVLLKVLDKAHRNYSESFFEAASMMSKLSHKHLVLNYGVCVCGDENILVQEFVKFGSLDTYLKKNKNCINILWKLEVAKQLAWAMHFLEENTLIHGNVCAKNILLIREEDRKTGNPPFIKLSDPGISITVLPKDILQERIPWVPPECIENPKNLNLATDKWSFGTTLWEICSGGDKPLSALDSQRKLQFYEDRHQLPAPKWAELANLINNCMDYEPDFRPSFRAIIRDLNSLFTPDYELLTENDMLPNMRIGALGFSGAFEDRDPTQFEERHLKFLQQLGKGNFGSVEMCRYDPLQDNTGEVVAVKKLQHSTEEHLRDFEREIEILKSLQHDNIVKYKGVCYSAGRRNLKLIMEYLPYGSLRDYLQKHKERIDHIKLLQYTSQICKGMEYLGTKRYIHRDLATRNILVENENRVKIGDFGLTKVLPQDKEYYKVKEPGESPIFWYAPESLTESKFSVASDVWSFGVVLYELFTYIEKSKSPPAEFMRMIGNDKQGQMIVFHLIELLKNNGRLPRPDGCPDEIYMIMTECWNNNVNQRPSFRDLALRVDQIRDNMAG
RUN DESCRIPTION: Recombinant Human JAK2 Kinase Assay (TRF)
Type: biochemical
TEST SETTINGS: JAK2 kinase inhibition, 0.2 μM ATP; read-out: JAK2 Potency
MEASURE: IC50

{"COMPOUND": "COc1ccccc1-c1ccn2nc(NCc3cccc(N(C)C)c3)ncc12 [Example 721]", "MEASURE": "IC50", "RESULT": "1000 to 10000 nM"}
{"COMPOUND": "COc1cc(N2CCC[C@@H](CN3CCN(C)CC3)C2)ccc1Nc1ncc2ccc(-c3ccccc3OC)n2n1 [Example 470]", "MEASURE": "IC50", "RESULT": "100 to 1000 nM"}
{"COMPOUND": "CN1CCCC1COc1cccc(Nc2ncc3ccc(-c4cccc(S(=O)(=O)NC(C)(C)C)c4)n3n2)c1 (stereo not shown) [Example 1005]", "MEASURE": "IC50", "RESULT": "< 100 nM"}
{"COMPOUND": "COc1ccc(-c2ccc3cnc(Nc4ccc5[nH]c(=O)[nH]c5c4)nn23)cn1 [Example 1309]", "MEASURE": "IC50", "RESULT": "< 100 nM"}
{"COMPOUND": "CN1CCN(c2ccc(Nc3ncc4ccc(-c5cccc(CCC#N)c5)n4n3)cc2)CC1 [Example 1142]", "MEASURE": "IC50", "RESULT": "< 100 nM"}
{"COMPOUND": "CN(C)Cc1ccccc1-c1ccc2cnc(Nc3ccc(N4CCOCC4)cc3)nn12 [Example 1035]", "MEASURE": "IC50", "RESULT": "100 to 1000 nM"}
{"COMPOUND": "C[C@H](O)CN1CCC(c2ccc(Nc3ncc4ccc(-c5cccc(N(C)S(C)(=O)=O)c5)n4n3)cc2)CC1 [Example 960]", "MEASURE": "IC50", "RESULT": "< 100 nM"}
{"COMPOUND": "CC(=O)N1CCCC(C)(C)c2ccc(Nc3ncc4ccc(-c5cccc(NS(C)(=O)=O)c5)n4n3)cc21 [Example 1365]", "MEASURE": "IC50", "RESULT": "< 100 nM"}
{"COMPOUND": "COc1ccc(-c2ccc3cnc(Nc4ccc5c(c4)CN(CC(N)=O)C5)nn23)cn1 [Example 926]", "MEASURE": "IC50", "RESULT": "< 100 nM"}
{"COMPOUND": "CS(=O)(=O)c1ccc(-c2ccc3cnc(Nc4ccc5[nH]c(=O)[nH]c5c4)nn23)cc1 [Example 1303]", "MEASURE": "IC50", "RESULT": "< 100 nM"}
{"COMPOUND": "COc1cc(Nc2ncc3ccc(-c4ccccc4N(C)S(C)(=O)=O)n3n2)ccc1C1CCN(C)CC1 [Example 913]", "MEASURE": "IC50", "RESULT": "< 100 nM"}
{"COMPOUND": "CC(C)S(=O)(=O)c1cccc(-c2ccc3cnc(Nc4ccc(Cl)c(OC[C@@H]5CCCN5)c4)nn23)c1 [Example 1015]", "MEASURE": "IC50", "RESULT": "< 100 nM"}
{"COMPOUND": "CN1CCN(CCn2cc(Nc3ncc4ccc(-c5ccccc5N(C)S(C)(=O)=O)n4n3)cn2)CC1 [Example 1212]", "MEASURE": "IC50", "RESULT": "< 100 nM"}
{"COMPOUND": "CN1CCN(c2ccc(Nc3ncc4cc(-c5cccc(CCC#N)c5)cn4n3)cc2)CC1 [Example 1161]", "MEASURE": "IC50", "RESULT": "< 100 nM"}
{"COMPOUND": "CN1CCN(c2cccc(Nc3ncc4ccc(-c5cn[nH]c5)n4n3)c2)CC1 [Example 970]", "MEASURE": "IC50", "RESULT": "< 100 nM"}
{"COMPOUND": "COc1ccccc1-c1ccc2cnc(Nc3ccn(CC(=O)N4CCN(C)CC4)n3)nn12 [Example 1114]", "MEASURE": "IC50", "RESULT": "< 100 nM"}

###

TARGET OR SYSTEM: ALK (Homo sapiens)
Construct: host or cells: baculovirus expression system
Sequence (Q9UM73 19-1620): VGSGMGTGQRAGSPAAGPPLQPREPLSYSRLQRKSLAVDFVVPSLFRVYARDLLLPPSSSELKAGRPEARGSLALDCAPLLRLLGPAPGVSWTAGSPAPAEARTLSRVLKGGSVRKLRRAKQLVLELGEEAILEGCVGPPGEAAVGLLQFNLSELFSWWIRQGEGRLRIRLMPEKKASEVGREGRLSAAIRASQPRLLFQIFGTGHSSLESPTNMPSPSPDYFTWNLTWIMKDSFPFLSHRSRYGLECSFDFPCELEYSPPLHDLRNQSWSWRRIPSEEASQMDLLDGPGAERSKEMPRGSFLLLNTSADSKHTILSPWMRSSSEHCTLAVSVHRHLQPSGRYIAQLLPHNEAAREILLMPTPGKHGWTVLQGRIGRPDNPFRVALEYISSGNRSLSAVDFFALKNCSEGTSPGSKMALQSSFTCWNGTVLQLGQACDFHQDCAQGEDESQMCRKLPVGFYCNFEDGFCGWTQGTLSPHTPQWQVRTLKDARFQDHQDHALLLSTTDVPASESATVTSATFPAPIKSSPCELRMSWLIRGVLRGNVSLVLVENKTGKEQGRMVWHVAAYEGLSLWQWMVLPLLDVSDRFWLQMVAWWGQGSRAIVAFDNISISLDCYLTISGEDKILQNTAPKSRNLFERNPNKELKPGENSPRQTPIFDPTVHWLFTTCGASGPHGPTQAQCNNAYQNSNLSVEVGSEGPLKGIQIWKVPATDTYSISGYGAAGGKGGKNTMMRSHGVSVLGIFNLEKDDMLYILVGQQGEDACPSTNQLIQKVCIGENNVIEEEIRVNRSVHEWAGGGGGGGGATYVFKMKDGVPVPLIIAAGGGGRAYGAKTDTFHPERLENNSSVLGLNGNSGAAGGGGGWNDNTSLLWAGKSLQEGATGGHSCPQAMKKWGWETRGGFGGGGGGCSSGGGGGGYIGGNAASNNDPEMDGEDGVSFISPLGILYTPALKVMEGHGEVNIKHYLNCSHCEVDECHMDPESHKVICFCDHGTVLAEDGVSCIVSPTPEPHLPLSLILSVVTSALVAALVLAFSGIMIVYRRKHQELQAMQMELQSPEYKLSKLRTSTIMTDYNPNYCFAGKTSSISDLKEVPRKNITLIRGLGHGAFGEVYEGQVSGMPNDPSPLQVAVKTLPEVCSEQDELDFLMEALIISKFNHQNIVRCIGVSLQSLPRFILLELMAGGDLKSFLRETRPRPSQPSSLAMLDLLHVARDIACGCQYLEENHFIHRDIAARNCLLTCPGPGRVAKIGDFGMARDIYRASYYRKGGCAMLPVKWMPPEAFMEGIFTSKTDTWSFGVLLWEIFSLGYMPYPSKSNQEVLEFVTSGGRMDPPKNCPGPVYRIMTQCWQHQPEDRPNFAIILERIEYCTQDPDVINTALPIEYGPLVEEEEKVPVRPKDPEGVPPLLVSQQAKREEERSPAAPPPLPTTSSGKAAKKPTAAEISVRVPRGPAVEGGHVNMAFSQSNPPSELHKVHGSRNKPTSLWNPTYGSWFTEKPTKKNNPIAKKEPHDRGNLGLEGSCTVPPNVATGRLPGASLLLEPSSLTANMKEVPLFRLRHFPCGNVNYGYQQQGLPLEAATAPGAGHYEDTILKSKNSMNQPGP
RUN DESCRIPTION: ALK Kinase Assay (ELISA/TRF, PLC-γ substrate)
Type: biochemical
TEST SETTINGS: ALK Kinase Inhibition; read-out: ALK Potency
MEASURE: IC50

{"COMPOUND": "CN1CCN(C2CCN(c3ccc(Nc4ncc5ccc(-c6cccnc6)n5n4)cc3)CC2)CC1", "RESULT": "100 to 1000 nM"}
{"COMPOUND": "Clc1cccc(-c2ccc3cnc(Nc4ccc5ncccc5c4)nn23)c1", "RESULT": "100 to 1000 nM"}
{"COMPOUND": "CS(=O)(=O)c1cccc(-c2ccc3cnc(Nc4ccc(N5CCOCC5)cc4)nn23)c1", "RESULT": "100 to 1000 nM"}
{"COMPOUND": "COc1ccccc1-c1c(C)c(C)c2cnc(Nc3ccc(N4CCOCC4)cc3)nn12", "RESULT": "100 to 1000 nM"}
{"COMPOUND": "Clc1cccc(-c2ccc3cnc(Nc4ccc5[nH]ccc5c4)nn23)c1", "RESULT": "> 10000 nM"}
{"COMPOUND": "COc1cc(N2CCC(N3CCOCC3)CC2)ccc1Nc1ncc2ccc(-c3cccc(OC)c3OC)n2n1", "RESULT": "< 100 nM"}
{"COMPOUND": "CN(c1ccccc1-c1ccc2cnc(Nc3ccc(C4(C#N)CCN(CC(N)=O)CC4)cc3)nn12)S(C)(=O)=O", "RESULT": "< 100 nM"}
{"COMPOUND": "Cn1cc(-c2ccc3cnc(Nc4cccc(NS(C)(=O)=O)c4)nn23)cn1", "RESULT": "1000 to 10000 nM"}
{"COMPOUND": "CN1CCN(c2ccc(Nc3ncc4ccc(-c5ccccc5[S+](C)[O-])n4n3)cc2)CC1 (stereo not drawn)", "RESULT": "100 to 1000 nM"}
{"COMPOUND": "COc1ccc(Cl)cc1-c1ccc2cnc(Nc3ccc4ncccc4c3)nn12", "RESULT": "100 to 1000 nM"}
{"COMPOUND": "COc1cc(N2CCC(N3CCOCC3)CC2)ccc1Nc1ncc2ccc(-c3cccc(NS(C)(=O)=O)c3)n2n1", "RESULT": "< 100 nM"}
{"COMPOUND": "COCCOc1ncc2ccc(-c3ccc(S(C)(=O)=O)cc3)n2n1", "RESULT": "> 10000 nM"}
{"COMPOUND": "COc1ccc(Nc2ncc3ccc(-c4ccccc4N(C)S(C)(=O)=O)n3n2)cc1N1CCCC1=O", "RESULT": "100 to 1000 nM"}
{"COMPOUND": "COc1cc(N2CCC[C@H](CN3CCN(C)CC3)C2)ccc1Nc1ncc2ccc(-c3ccccc3OC)n2n1", "RESULT": "< 100 nM"}
{"COMPOUND": "COc1cc(N2CCN(C[C@H](C)O)CC2)c(F)cc1Nc1ncc2ccc(-c3ccccc3OC)n2n1", "RESULT": "< 100 nM"}
{"COMPOUND": "CC(=O)N1CCOc2ccc(Nc3ncc4ccc(-c5cccc(S(=O)(=O)NC(C)(C)C)c5)n4n3)cc21", "RESULT": "< 100 nM"}
{"COMPOUND": "O=S1(=O)CCCN1c1cccc(-c2ccc3cnc(Nc4cccc(-n5cccn5)c4)nn23)c1", "RESULT": "> 10000 nM"}
{"COMPOUND": "CN1CCN(CCCOc2ccc(Nc3ncc4ccc(-c5cccnc5)n4n3)cc2)CC1", "RESULT": "100 to 1000 nM"}
{"COMPOUND": "CN1CCN(c2ccc(Nc3ncc4ccc(-c5cccnc5)n4n3)cc2)CC1", "RESULT": "100 to 1000 nM"}
{"COMPOUND": "CCN1CCOC(c2ccc(Nc3ncc4ccc(-c5cc(Cl)ccc5OC)n4n3)cc2)C1 (stereo not drawn)", "RESULT": "< 100 nM"}
{"COMPOUND": "CN1CCN(c2ccc(Nc3ncc4ccc(-c5cccc(NS(=O)(=O)C6CC6)c5)n4n3)cc2)CC1", "RESULT": "100 to 1000 nM"}
{"COMPOUND": "CN1CCN(c2ccc(Nc3ncc4c(-c5ccccc5)ccn4n3)cc2)CC1", "RESULT": "> 10000 nM"}
{"COMPOUND": "Cc1cc(Nc2ncc3ccc(-c4cccc(Cl)c4)n3n2)ccc1N1CCN(C)CC1", "RESULT": "< 100 nM"}
{"COMPOUND": "CC(C)(C)NS(=O)(=O)c1cccc(-c2ccc3cnc(Nc4cccc(C5(O)CCNCC5)c4)nn23)c1", "RESULT": "< 100 nM"}
{"COMPOUND": "COc1ccc(Nc2ncc3ccc(-c4cccc(Cl)c4)n3n2)cc1OC", "RESULT": "1000 to 10000 nM"}
{"COMPOUND": "COc1ccccc1-c1ccc2cnc(Nc3cccc(C(N)=O)c3)nn12", "RESULT": "100 to 1000 nM"}
{"COMPOUND": "CCS(=O)(=O)Nc1cccc(-c2ccc3cnc(Nc4ccc(N5CCN(C)CC5)cc4)nn23)c1", "RESULT": "100 to 1000 nM"}
{"COMPOUND": "CC(C)(C)NS(=O)(=O)c1ccccc1-c1ccc2cnc(Nc3ccc(N4CCOCC4)cc3)nn12", "RESULT": "100 to 1000 nM"}
{"COMPOUND": "O=S1(=O)CCCN1c1cccc(-c2ccc3cnc(Nc4ccc5c(c4)CCC(N4CCOCC4)CC5)nn23)c1 (stereo not drawn)", "RESULT": "100 to 1000 nM"}
{"COMPOUND": "COc1cc(Nc2ncc3ccc(-c4cccc(Cl)c4)n3n2)ccc1N1CCOCC1", "RESULT": "100 to 1000 nM"}
{"COMPOUND": "COc1ccc(Cl)cc1-c1ccc2cnc(Nc3ccc(CN4CCN(C)CC4)cc3)nn12", "RESULT": "< 100 nM"}
{"COMPOUND": "COc1ccccc1-c1ccc2cnc(Nc3ccc(N4CCN(C)CC4)c(F)c3)nn12", "RESULT": "< 100 nM"}
{"COMPOUND": "FC(F)(F)c1ccc(Cl)c(-c2ccc3cnc(Nc4ccc(N5CCOCC5)cc4)nn23)c1", "RESULT": "1000 to 10000 nM"}
